- experimental.protocol: Potassium channel opening activity in vitro using LtK cells transfected with Kir6.2/SUR2B exon 17
Item-by-item account of pEC50
In plain terms, pEC50 is the concentration in mol/L turned into minus its base-10 logarithm.

Here's what some known entries look like.
| smi | measured.property | observed.result |
| --- | --- | --- |
| Cc1ccc(C(=O)Nc2c(C(O)(C(F)(F)F)C(F)(F)F)ccc3ccccc23)cc1 | pEC50 | 7.12 |
| COc1ccc(C(=O)Nc2c(C(O)(C(F)(F)F)C(F)(F)F)ccc3ccccc23)cc1 | pEC50 | 6.38 |
| CC(=O)Nc1c(C(O)(C(F)(F)F)C(F)(F)F)ccc2c(O)cccc12 | pEC50 | 6.86 |
| O=C(Nc1c(C(O)(C(F)(F)F)C(F)(F)F)ccc2ccccc12)c1ccc(F)cc1 | pEC50 | 7.15 |
| CCC(CC)C(=O)Nc1c(C(O)(C(F)(F)F)C(F)(F)F)ccc2ccccc12 | pEC50 | 5.36 |
| Cc1cccc(C(=O)Nc2c(C(O)(C(F)(F)F)C(F)(F)F)ccc3ccccc23)c1 | pEC50 | 7.64 |

pEC50 for "N#Cc1cccc(C(=O)Nc2c(C(O)(C(F)(F)F)C(F)(F)F)ccc3ccccc23)c1" is 7.92

Per the records, this compound ( "O=C(Nc1c(C(O)(C(F)(F)F)C(F)(F)F)ccc2ccccc12)c1ccco1" ) has pEC50 equal to 8.05

Noted for "O=C(CC1CCCC1)Nc1c(C(O)(C(F)(F)F)C(F)(F)F)ccc2ccccc12" : its pEC50 reads 7.09

What the record says about "O=C(Nc1c(C(O)(C(F)(F)F)C(F)(F)F)ccc2ccccc12)c1cccc([N+](=O)[O-])c1" : pEC50 is 6.93

Value of pEC50 reported for the compound "O=C(Nc1c(C(O)(C(F)(F)F)C(F)(F)F)ccc2ccccc12)c1cc(Cl)cc(Cl)c1" is 6.51

// sample "O=C(Nc1c(C(O)(C(F)(F)F)C(F)(F)F)ccc2ccccc12)c1ccc(I)cc1" , its pEC50 was 6.81

pEC50 reported for this compound "O=C(Nc1c(C(O)(C(F)(F)F)C(F)(F)F)ccc2ccccc12)c1cccnc1" : 7.22

Given item "O=C(Nc1c(C(O)(C(F)(F)F)C(F)(F)F)ccc2ccccc12)c1cccc(Br)c1" , the value recorded as its pEC50 is 7.10

The recorded pEC50 for "CC(C)OC(=O)Nc1c(C(O)(C(F)(F)F)C(F)(F)F)ccc2ccccc12" is 5.94

Field pEC50 (entry "O=C(Nc1c(C(O)(C(F)(F)F)C(F)(F)F)ccc2ccccc12)C1CC1" ) reads 6.12

The compound identified as "O=C(CCc1ccccc1)Nc1c(C(O)(C(F)(F)F)C(F)(F)F)ccc2ccccc12" registered its pEC50 at 5.76

Documented pEC50 of "CC(C)CCC(=O)Nc1c(C(O)(C(F)(F)F)C(F)(F)F)ccc2ccccc12" : 7.31

// field: pEC50; key: "O=C(Nc1c(C(O)(C(F)(F)F)C(F)(F)F)ccc2ccccc12)c1cnco1" ; value = 7.62

---

- experimental.protocol: Potassium channel opening activity in vitro using LtK cells transfected with Kir6.2/SUR2B exon 17
Simple rule here: EC50 less than 300 nM is yes (1), otherwise no (0).

| smi | assigned.class |
| --- | --- |
| O=C(Nc1c(C(O)(C(F)(F)F)C(F)(F)F)ccc2ccccc12)c1ccc(-c2ccccc2)cc1 | no (0) |

Please find the next compound below.
Is EC50 strictly under 300 nM for the entry "CC(C)C(=O)Nc1c(C(O)(C(F)(F)F)C(F)(F)F)ccc2ccccc12" ?
no (0)
